Reference source: paper PMC11078746

Assay: HRO761 blood PK in SW48 tumour-bearing mice
Type: in vivo, mouse
Settings: female, whole blood, oral; mouse at 40 mg/kg qd; read-out: Efficacious daily AUC
Method: All animal studies were conducted in accordance with ethics and procedures covered by permit BS-2275 and BS-1975 issued by the Kantonales Veterinäramt Basel-Stadt and in strict adherence to guidelines of the Eidgenössisches Tierschutzgesetz and the Eidgenössische Tierschutzverordnung, Switzerland. All animal studies were approved by the internal ethics committee. […] PK parameters were determined by non-compartmental analysis. […]
readout-kind: AUC

• CCc1c(N2CCN(C(=O)c3ncnc(C)c3O)CC2)c(=O)n2nc(C3=CCOCC3)nc2n1CC(=O)Nc1ccc(C(F)(F)F)cc1Cl = 31 µM·h
